System: KM12
Method description: NCI tumour cell line growth inhibition, 48 h
Activity calls are given as the source filed them. Cut-off read from the data, not from the text of the source: active = GI50 up to about 1.1 µM and inactive = higher.
Below is a list of entries, each paired with its recorded GI50 value.

Previously resolved entries follow.
N#CC(NNC(=O)Cc1ccccc1)c1c(O)ccc2ccccc12 (centres undefined) | 4.02 µM (inactive)
COc1cc2c(cc1O)CCN(C)[C@H]2Cc1ccc(Oc2c(O)c(OC)cc3c2C[C@H]2c4c(c(OC)c(OC)c(OC)c4-3)CCN2C)cc1 [THALIFABERIDINE] | 4.11 µM (inactive)
CCOC(=O)/C=C(\C(=O)OCC)n1cc(C)c(=O)n(Cc2cn(COCCOC(C)=O)nn2)c1=O | 16.2 µM (inactive)

Next compound, please.
Per the record, N#C/C(=C\c1cccc(Br)c1)c1nc2ccccc2c(=O)[nH]1 has GI50 of > 100 µM (inactive)

----------
Below: a set of entries, each annotated with reported GI50.
Test system: UACC-62
Method description: NCI tumour cell line growth inhibition, 48 h
Calls of active or inactive are those of the source. No stated cut-off is given here; in the data, active = GI50 up to about 1.1 µM and inactive = higher.

Recorded results for 4 compounds are shown here.
COc1cc(/C=C\c2ccccc2)cc(OC)c1OC | 2.49 µM (inactive)
CC1CNC(c2ccc3c(c2)Cc2cc(C4=NC(C)CN4)ccc2-3)=N1 (centres undefined) | 28.6 µM (inactive)
NCC[Se][Se]CCN | 17.3 µM (inactive)
c1ccc2[nH]c(CNc3ccc(C4C[Se]N=N4)cc3)nc2c1 (centres undefined) | 24.7 µM (inactive)

Given item CC(C)Nc1n[nH]c(=O)n1C(C)C , the value recorded as its GI50 is > 100 µM (inactive)

GI50 reported for this compound Fc1ccc(C(OCCN2CCC3CCC(C2)N3CCCc2ccccc2)c2ccc(F)cc2)cc1 (centres undefined) : 5.75 µM (inactive)

Record summary for CC(C)C(Sc1nc(-c2ccccc2)c(-c2ccccc2)[nH]1)c1n[nH]c(=S)n1-c1ccccc1 (centres undefined) : reported GI50 = 11.5 µM (inactive)

Reported GI50 of COC(=O)C(Cc1c(-c2[nH]c3ccccc3c2CC(NC(C)=O)C(=O)OC)[nH]c2ccccc12)NC(C)=O (centres undefined) : > 100 µM (inactive)

----------
Reported GI50 values are given for each entry in this list.
Test system: OVCAR-3
Method description: NCI tumour cell line growth inhibition, 48 h
Activity calls are given as the source filed them. Cut-off read from the data, not from the text of the source: active = GI50 up to about 1.1 µM and inactive = higher.

The examples below pair each entry with its known result.
CC(C)C(Sc1nc(-c2ccccc2)c(-c2ccccc2)[nH]1)c1n[nH]c(=S)n1-c1ccccc1 (stereo not given) | 19.6 µM (inactive)
CCOC(=O)c1nnsc1NN=C(C)C | > 100 µM (inactive)

For record COc1cc2c(cc1O)CCN(C)[C@H]2Cc1ccc(Oc2c(O)c(OC)cc3c2C[C@H]2c4c(c(OC)c(OC)c(OC)c4-3)CCN2C)cc1 [THALIFABERIDINE] the listed GI50 is 5.36 µM (inactive)

Please fill in: GI50 reported for C[N+]1(CCN[N+]2(C)CCCCC2)CCc2ccccc2C1 (stereo not given) = > 100 µM (inactive)

# GI50 of CC1(C)COC2(OC1)C1=NS(=O)(=O)CC13CCC2C3(C)C (stereo not given) = > 100 µM (inactive)

Noted for c1ccc2c(c1)CCN1CCc3c([nH]c4ccccc34)C21 (stereo not given) : its GI50 reads 24 µM (inactive)

GI50 reading for Nc1nc(N)c(N=Nc2ccc([As](=O)(O)O)c(O)c2)c(N)n1 : 3.61 µM (inactive)

Item: CC(C)/C(Cl)=N\OC(=O)Nc1ccc(F)cc1 | GI50: 8.22 µM (inactive)

So for CN(CCCn1ccnc1[N+](=O)[O-])CCCn1ccnc1[N+](=O)[O-] , the logged GI50 turned out to be > 100 µM (inactive)

Value of measured GI50 for the entry CN(C)c1ccc(/C=N/CC2CCCN3CCCCC23)cc1 (stereo not given) : > 100 µM (inactive)

----------
The entries below are paired with their reported GI50.
Tested on: HCC 2998
Method description: NCI tumour cell line growth inhibition, 48 h
Active and inactive are the calls of the source. No stated cut-off is given here; in the data, active = GI50 up to about 1.1 µM and inactive = higher.

Recorded GI50, per entry:
CN(C)c1ccc(/C=c2\sc3nnc(-c4cccnc4)n3c2=O)cc1 | > 100 µM (inactive)
CCCCCCNC(=O)C(C)C1CCC2(C)C=CC(=O)C(C)=C2C1O (stereo not given) | > 100 µM (inactive)
Cc1cc(S(=O)(=O)Nc2nc3ccccc3n2-c2ccccc2)c(S)cc1Cl | > 100 µM (inactive)
COc1ccc(C2=C(N)c3cc(OC)ccc3C2=O)cc1 | > 100 µM (inactive)

Value (GI50, HCC 2998) for record CC(C)C(Sc1nc(-c2ccccc2)c(-c2ccccc2)[nH]1)c1n[nH]c(=S)n1-c1ccccc1 (stereo not given) = 28.4 µM (inactive)

----------
Below, each entry is listed alongside its reported GI50.
Test system: SNB-75
Method description: NCI tumour cell line growth inhibition, 48 h
Calls of active or inactive are those of the source. Cut-off read from the data, not from the text of the source: active = GI50 up to about 1.1 µM and inactive = higher.

Solved cases (5 shown):
CCCCOP1(=O)C=C(C)C(=C(Cl)Cl)C(C)=C1 (centres undefined) | 11.4 µM (inactive)
CCCCCCCCCCCCCCCCOC[C@H](COC(c1ccccc1)(c1ccccc1)c1ccccc1)O[PH](=S)OC (some centres undefined) | > 100 µM (inactive)
Clc1cc(OC23CC4CC(CC(C4)C2)C3)nc(Cl)n1 | 64.6 µM (inactive)
C=C1C(=O)O[C@H]2C[C@@H](C)[C@@H]3CC(=O)OC[C@@]3(C)CC12 (some centres undefined) | 30.1 µM (inactive)
O=c1cc(-c2ccccc2)oc2c(-c3cc(Cl)cc4c(=O)cc(-c5ccccc5)oc34)cc(Cl)cc12 | 4.49 µM (inactive)

Noted for CC(C)=CC(=O)c1c(C(=O)O)nc2ccccc2[n+]1[O-] : its GI50 reads > 100 µM (inactive)

So, COC(=O)c1cnc(Cl)c([N+](=O)[O-])c1 ? Its GI50 was 20.4 µM (inactive)

According to the records, this compound COC(=O)/C(=C/CC(N=C(c1ccccc1)c1ccccc1)C(=O)OC)N=C(c1ccccc1)c1ccccc1 (centres undefined) displays GI50 of 12.4 µM (inactive)

For C[N+]12CCN(c3ccccc31)c1ccccc12.[O-][Cl+3]([O-])([O-])[O-] the compound record lists GI50 as 6.28 µM (inactive)

Reported GI50 for CC(=O)SC(C[N+](=O)[O-])c1ccc2c(c1)OCO2 (centres undefined) was 9.59 µM (inactive)

Item: C[C@@H](C1CC[C@H]2[C@@H]3[C@@H]4O[C@@H]4[C@@]4(O)CC=CC(=O)[C@]4(C)[C@H]3C[C@H](O)[C@]12C)[C@H]1C[C@]2(C)O[C@]2(C)C(=O)O1 (some centres undefined) | GI50: > 100 µM (inactive)

Recorded result, O=c1[nH]nc(Cc2ccccc2)n1/N=C/c1ccco1 , GI50: > 100 µM (inactive)

For this compound ( CC1(C)COC2(OC1)C1=NS(=O)(=O)CC13CCC2C3(C)C (centres undefined) ), measured GI50 is > 100 µM (inactive)

The compound listed as CN(/N=C/C=N/N(C)C1=NCCCCN1)C1=NCCCCN1 shows GI50 equal to > 100 µM (inactive)

The measured GI50 associated with O=C1N2CCC[C@H]2CS1(=O)=O reads 18.6 µM (inactive)

// GI50 value for C=C1[C@H]2O[C@H]2[C@@H](OC(C)=O)[C@@]2(C)[C@@H](OC(C)=O)C[C@@H](OC(=O)CCC)[C@@](C)(O)[C@@H]2[C@@H](OC(C)=O)[C@]2(O)[C@@H](C)C(=O)O[C@H]2[C@H]1Cl : > 100 µM (inactive)

Recorded GI50 (compound CC1(C2CCC3(C)C(C2)C3Sc2ccccc2)OCCO1 (centres undefined) ): 54.6 µM (inactive)

Kindly note the recorded GI50 for C#CCn1ncc2c(SC)ncnc21 , which is 33.8 µM (inactive)

CCOC(=O)N1CCN(Cc2cc(=O)n3cc(C)ccc3n2)CC1 has a reported GI50 of > 100 µM (inactive)

----------
Tested on: SK-OV-3
Method description: NCI tumour cell line growth inhibition, 48 h
The source made the active and inactive calls. No stated cut-off is given here; in the data, active = GI50 up to about 1.1 µM and inactive = higher.
Valid outcomes are listed here; reply with one: class 1 (active), class 0 (inactive)

Record excerpt, results attached:
CSc1ccsc1-c1sc(-c2cc(SC)c(-c3sc(-c4cc(SC)c(-c5sccc5SC)s4)cc3SC)s2)cc1SC | class 0
NC(=O)c1ncn2c1CNC(=O)C2 | class 0
Cc1cc2c(c3c1c1ccccc1n3C)C(=O)C=CC2=O | class 0
NC(=O)COc1ccccc1 | class 0
Cc1c2ccccc2c(CO)c2cc(F)c3ccccc3c12 | class 0
O=S(=O)(c1ccccc1)c1cccc2c1NCCC2 | class 0

Request: What outcome does the record of this test show for CC(=O)SC(C[N+](=O)[O-])c1ccc2c(c1)OCO2 (stereo not drawn) ?
Response: class 0

Request: Tell me the assay call for Cc1ccc2sc3ccc(N)cc3c(=O)c2c1 please.
Response: class 0
